All values here come from patent US20200317776A1.

# test.system: T1, cynomolgus monkey TREM2 Fc fusion (entire TREM2 ECD; only one Fc arm fused to TREM2) (cynomolgus monkey, UniProt Q9NZC2 19-174 (human entry))
# T1 construct: also called cyno TREM2-Fc
# T1 chain: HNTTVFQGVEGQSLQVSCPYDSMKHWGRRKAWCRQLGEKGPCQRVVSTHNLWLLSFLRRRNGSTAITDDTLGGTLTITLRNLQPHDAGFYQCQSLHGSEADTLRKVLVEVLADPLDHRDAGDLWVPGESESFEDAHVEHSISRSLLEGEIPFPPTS
# experiment.summary: BLI, Fab, monovalent
pKd: −log10 of the molar value.

binder | pKd
AL2p-58 (antibody, V domains shown, Fab and IgG formats under one id (explicit huIgG1 is m95, PSEG is m96)) VH: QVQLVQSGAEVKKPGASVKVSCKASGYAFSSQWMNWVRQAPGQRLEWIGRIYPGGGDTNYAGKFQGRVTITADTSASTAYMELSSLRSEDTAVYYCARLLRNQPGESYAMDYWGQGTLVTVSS VL: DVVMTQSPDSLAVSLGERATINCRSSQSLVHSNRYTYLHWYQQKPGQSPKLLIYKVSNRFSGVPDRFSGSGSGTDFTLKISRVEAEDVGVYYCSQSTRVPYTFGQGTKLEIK | 7.91
AL2p-45 (antibody, V domains shown, Fab and IgG formats under one id) VH: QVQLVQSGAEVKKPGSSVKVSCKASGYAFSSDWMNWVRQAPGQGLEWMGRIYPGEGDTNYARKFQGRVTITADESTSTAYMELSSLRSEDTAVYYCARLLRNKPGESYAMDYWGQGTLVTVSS VL: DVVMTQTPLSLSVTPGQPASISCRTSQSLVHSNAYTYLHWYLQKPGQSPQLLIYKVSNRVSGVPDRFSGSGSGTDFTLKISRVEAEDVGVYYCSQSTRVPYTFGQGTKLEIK | 7.68
AL2p-54 (antibody, V domains shown, Fab and IgG formats under one id) VH: QVQLVQSGAEVKKPGSSVKVSCKASGYAFSSHWMNWVRQAPGQGLEWMGRIYPGEGDTNYAQKFHGRVTITADESTSTAYMELSSLRSEDTAVYYCARLLRNKPGESYAMDYWGQGTLVTVSS VL: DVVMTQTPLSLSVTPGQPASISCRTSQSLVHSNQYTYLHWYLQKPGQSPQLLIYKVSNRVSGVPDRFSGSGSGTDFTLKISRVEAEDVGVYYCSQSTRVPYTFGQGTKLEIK | 7.77
AL2p-57 (antibody, V domains shown, Fab and IgG formats under one id) VH: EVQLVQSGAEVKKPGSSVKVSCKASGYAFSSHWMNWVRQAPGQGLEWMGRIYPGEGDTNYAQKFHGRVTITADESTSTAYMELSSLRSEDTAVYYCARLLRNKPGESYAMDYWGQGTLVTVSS VL: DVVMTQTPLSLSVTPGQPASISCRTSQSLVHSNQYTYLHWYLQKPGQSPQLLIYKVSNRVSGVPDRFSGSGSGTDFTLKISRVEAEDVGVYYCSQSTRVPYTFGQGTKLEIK | 7.75
AL2p-42 (antibody, V domains shown, Fab and IgG formats under one id) VH: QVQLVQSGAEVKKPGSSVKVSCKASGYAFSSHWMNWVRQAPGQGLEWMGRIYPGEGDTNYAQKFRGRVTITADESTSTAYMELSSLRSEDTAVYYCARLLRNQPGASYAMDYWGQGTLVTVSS VL: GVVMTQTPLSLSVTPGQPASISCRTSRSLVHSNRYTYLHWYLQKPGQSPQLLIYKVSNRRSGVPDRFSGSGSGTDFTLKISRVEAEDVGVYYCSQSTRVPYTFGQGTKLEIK | 9.51
